assay_explanation: Cell viability assay (MTS)
Assay type: cell-based
measurement_conditions: hamster, nucleobase dose-response +Prdg 3 1.4 μM
Measured CC50 at 3 days, listed per entry for reference.

Solved cases (2 shown):
NC(=O)c1nc[nH]n1
> 50 µM
NC(=O)c1ncc[nH]c1=O
> 167 µM

Consider the additional compound presented here.
Query string: Entry NC(=O)c1nc(F)c[nH]c1=O : reported CC50 at 3 days = ?
Result string: > 500 µM

* * *

assay_explanation: Cell viability assay (MTS)
Type: cell-based
measurement_conditions: hamster, compound alone; DENV replicon cells, MTS, three days
measurement_label: CC50 at 3 days (nM)
// return numeric value only (unit: nM, not printed)

O=c1[nH]cc(F)c(=O)[nH]1 [5-fluorouracil]
930

Query string: What does the record list as CC50 at 3 days for CSc1ncnc2c1ncn2[C@@H]1O[C@H](COC(=O)N(C)C)[C@@H](OC(=O)C(C)C)[C@H]1OC(=O)C(C)C [Prdg 3] ?
Result string: 2400
